All values here come from patent US20230272055A1.

# tgt: T1, Recombinant MBP-mutCALR Type 1 fusion protein (human)
# T1 construct: custom made at Cepter; also called recombinant mutCALR protein
# protocol description: SPR, IgG captured, 1:1 fit, Exp. 2
recorded endpoint: Kd (nM)

anti-mutCALR antibody clone 80 (antibody, human IgG1, lambda, N297A, V domains shown, human IgG1 N297A variant of clone 6) VH: EVQLVQSGAEVKKPGASVKVSCKVSGYTLTELSMQWVRQAPGKGLEWMGGFDPDDGETMYAEKFQGRLTVTEDTSTDTVYMELSSLRSEDTAVYFCATSPGYDFFDYWGQGTLVTVSS VL: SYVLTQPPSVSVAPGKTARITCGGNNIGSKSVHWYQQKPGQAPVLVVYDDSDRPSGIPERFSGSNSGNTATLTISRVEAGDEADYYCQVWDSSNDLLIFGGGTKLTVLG: 0.638
anti-mutCALR antibody clone 81 (antibody, human IgG1, lambda, N297A, V domains shown, human IgG1 N297A variant of clone 6) VH: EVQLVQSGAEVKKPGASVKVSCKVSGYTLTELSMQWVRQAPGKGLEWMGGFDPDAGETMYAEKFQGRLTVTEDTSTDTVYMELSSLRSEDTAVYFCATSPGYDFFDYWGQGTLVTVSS VL: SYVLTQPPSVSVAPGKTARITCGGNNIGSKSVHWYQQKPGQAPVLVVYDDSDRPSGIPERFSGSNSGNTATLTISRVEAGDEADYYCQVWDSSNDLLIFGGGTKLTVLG: 6.62
anti-mutCALR antibody clone 136 (antibody, human IgG1, lambda, N297A, V domains shown, human IgG1 N297A variant of clone 15) VH: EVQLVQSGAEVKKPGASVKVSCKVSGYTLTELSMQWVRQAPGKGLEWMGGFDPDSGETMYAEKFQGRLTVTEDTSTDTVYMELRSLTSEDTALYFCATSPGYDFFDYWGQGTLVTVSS VL: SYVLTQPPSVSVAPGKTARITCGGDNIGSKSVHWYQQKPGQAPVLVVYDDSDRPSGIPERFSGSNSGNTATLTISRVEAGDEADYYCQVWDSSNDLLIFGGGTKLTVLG: 6.7
